Origin of the recorded values: paper PMC5443610

- System Name: BRPF1 BD (Homo sapiens)
- Measurement Notes: TR-FRET binding competition assay
- Test Parameters: BRPF1: inactive up to concentration, TR-FRET, HTS hit dose-response
Reported Endpoint: IC50

// query Returns the measured IC50 for the input molecule. Input: "Cn1c(=O)n(C)c2cc(N3C(=O)c4cccc5cccc(c45)C3=O)ccc21"
// result > 20 µM

---

- System Name: CREBBP (Homo sapiens)
- Sequence (Q92793 1081-1197): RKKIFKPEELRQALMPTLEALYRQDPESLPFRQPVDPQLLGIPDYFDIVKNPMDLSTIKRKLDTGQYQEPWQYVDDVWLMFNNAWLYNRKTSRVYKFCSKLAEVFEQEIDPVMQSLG
Reported Endpoint: IC50 (nM)
Give the value in nM but do not write nM after it.

// query Returns the measured IC50 for the input molecule. Input: Cc1cc2c(cc1N1C(=O)c3cccc4c(CCCO)ccc(c34)C1=O)n(C)c(=O)n2C (racemic) [Compound 5]
// result 1710

---

- System Name: BRPF3 BD (Homo sapiens)
- Sequence (Q9ULD4 592-711): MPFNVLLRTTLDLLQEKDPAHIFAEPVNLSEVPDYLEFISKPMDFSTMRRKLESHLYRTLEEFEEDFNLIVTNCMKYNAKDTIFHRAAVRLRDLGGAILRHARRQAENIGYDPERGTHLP
Reported Endpoint: IC50 (µM)
Give the value in µM but do not write µM after it.

// query Returns the measured IC50 for the input molecule. Input: Cc1cc2c(cc1N1C(=O)c3cccc4c(CCCO)ccc(c34)C1=O)n(C)c(=O)n2C (racemic) [Compound 5]
// result 5.55

---

- System Name: BRPF1 (Homo sapiens, UniProt P55201)
- Sequence (P55201 628-732 limits assumed): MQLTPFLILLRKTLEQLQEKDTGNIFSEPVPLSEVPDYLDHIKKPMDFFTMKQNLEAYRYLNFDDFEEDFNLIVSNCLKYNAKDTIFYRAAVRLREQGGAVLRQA
Reported Endpoint: pIC50
Formally, pIC50 is defined as -log10 of the concentration c, with c in mol/L.

// query For BRPF1 (Homo sapiens, UniProt P55201), provide pIC50 of Cc1cc2c(cc1N1C(=O)c3cccc4c(CCCO)ccc(c34)C1=O)n(C)c(=O)n2C (racemic) please.
// result 5.64

---

- System Name: CREBBP BD (Homo sapiens)
- Sequence (Q92793 1081-1197): as the sequence (Q92793 1081-1197) above
Reported Endpoint: pKd
Formally, pKd is defined as -log10 of the concentration c, with c in mol/L.

// query Returns the measured pKd for the input molecule. Input: Cc1cc2c(cc1N1C(=O)c3cccc4c(CCCO)ccc(c34)C1=O)n(C)c(=O)n2C (racemic) [Compound 5]
// result 5.86

---

- System Name: BRPF1 BD/H4 (Homo sapiens, UniProt P55201)
- Sequence (P55201 626-732): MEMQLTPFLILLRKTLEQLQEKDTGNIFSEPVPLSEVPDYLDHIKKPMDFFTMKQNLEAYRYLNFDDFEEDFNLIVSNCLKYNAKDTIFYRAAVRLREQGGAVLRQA
- Measurement Notes: NanoBRET cellular assay
pIC50: −log10 of the molar value.
Reported Endpoint: pIC50

// query Returns the measured pIC50 for the input compound. Input: Cc1cc2c(cc1N1C(=O)c3cccc4c(CCCO)ccc(c34)C1=O)n(C)c(=O)n2C (racemic) [Compound 5]
// result < 5.00

---

- System Name: BRPF1 BD (Homo sapiens)
- Sequence (P55201 626-740): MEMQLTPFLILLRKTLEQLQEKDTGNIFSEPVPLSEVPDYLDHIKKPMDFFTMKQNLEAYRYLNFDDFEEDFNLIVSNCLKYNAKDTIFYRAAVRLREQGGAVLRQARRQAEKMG
- Measurement Notes: TR-FRET binding competition assay
- Test Parameters: BRPF1 IC50, TR-FRET
pIC50 overview
Formally, pIC50 is defined as -log10 of the concentration c, with c in mol/L.

// solved cases for pIC50 follow
// query Returns the measured pIC50 for the input compound. Input: Cc1cc2c(cc1N1C(=O)c3cccc4c(CCCO)ccc(c34)C1=O)n(C)c(=O)n2C (single isomer, unassigned) [atropisomer 2]
// result 5.26

// query Returns the measured pIC50 for the input compound. Input: Cc1cc2c(cc1N1C(=O)c3cccc4c(CCCO)ccc(c34)C1=O)n(C)c(=O)n2C (single isomer, unassigned) [atropisomer 1]
// result 5.23

# context switch: different compound, same pIC50
// query Returns the measured pIC50 for the input compound. Input: Cc1cc2c(cc1N1C(=O)c3cccc4c(CCCO)ccc(c34)C1=O)n(C)c(=O)n2C (racemic) [Compound 5]
// result 5.50
